- STUDY SYSTEM: Phosphatidylinositol 4,5-bisphosphate 3-kinase catalytic subunit delta isoform (Homo sapiens, UniProt O00329)
- Sequence (O00329 whole entry): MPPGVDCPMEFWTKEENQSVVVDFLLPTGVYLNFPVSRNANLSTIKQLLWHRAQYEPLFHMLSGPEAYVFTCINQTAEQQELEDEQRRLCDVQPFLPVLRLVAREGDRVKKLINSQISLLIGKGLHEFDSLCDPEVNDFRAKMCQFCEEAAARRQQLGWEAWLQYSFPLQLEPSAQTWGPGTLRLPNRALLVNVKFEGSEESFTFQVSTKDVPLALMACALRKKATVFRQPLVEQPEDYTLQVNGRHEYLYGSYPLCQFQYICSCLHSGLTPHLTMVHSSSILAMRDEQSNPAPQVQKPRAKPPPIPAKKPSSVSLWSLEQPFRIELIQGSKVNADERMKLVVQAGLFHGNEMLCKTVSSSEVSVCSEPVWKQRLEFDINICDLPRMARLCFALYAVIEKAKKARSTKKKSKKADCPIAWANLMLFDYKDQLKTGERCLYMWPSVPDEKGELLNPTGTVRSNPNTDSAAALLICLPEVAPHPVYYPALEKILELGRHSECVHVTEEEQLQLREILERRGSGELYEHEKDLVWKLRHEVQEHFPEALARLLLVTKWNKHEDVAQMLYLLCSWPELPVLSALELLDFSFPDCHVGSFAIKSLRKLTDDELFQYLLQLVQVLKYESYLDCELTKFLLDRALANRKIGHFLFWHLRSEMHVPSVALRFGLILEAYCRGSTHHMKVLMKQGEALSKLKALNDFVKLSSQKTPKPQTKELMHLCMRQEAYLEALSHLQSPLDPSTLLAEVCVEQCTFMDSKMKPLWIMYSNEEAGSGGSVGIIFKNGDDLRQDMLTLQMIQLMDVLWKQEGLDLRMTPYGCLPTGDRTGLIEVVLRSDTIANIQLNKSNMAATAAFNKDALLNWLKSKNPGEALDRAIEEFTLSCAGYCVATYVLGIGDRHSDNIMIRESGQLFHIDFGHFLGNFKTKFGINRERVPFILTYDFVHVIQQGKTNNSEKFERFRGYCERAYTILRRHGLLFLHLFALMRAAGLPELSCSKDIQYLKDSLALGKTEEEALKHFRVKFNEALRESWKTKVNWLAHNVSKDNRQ
- PROTOCOL DETAILS: Inhibition of PI3Kdelta (unknown origin) expressed in baculovirus expression system by kinase-glo luminescence assay
READOUT KIND: IC50 (nM)

SMILES REPRESENTATION	IC50 (nM)
O=C(O)C1CCN(c2nc(N3CCOCC3)nc(-n3c(C(F)F)nc4ccccc43)n2)CC1	38

(P) NC(=O)CNC(=O)[C@@H]1CCCN(c2nc(N3CCOCC3)nc(-n3c(C(F)F)nc4ccccc43)n2)C1
(Q) CC(C)[C@H](NC(=O)C1CCN(c2nc(N3CCOCC3)nc(-n3c(C(F)F)nc4ccccc43)n2)CC1)C(N)=O
(R) O=C([C@@H]1CCCCN1)N1CCN(c2nc(N3CCOCC3)nc(-n3c(C(F)F)nc4ccccc43)n2)CC1
(S) O=C(C[C@@H]1CCCN1)N1CCN(c2nc(N3CCOCC3)nc(-n3c(C(F)F)nc4ccccc43)n2)CC1
(T) NC(=O)[C@H](Cc1ccccc1)NC(=O)[C@@H]1CCCN(c2nc(N3CCOCC3)nc(-n3c(C(F)F)nc4ccccc43)n2)C1
q: Please order the records by their reported IC50, lowest number first. Returns: the labels arranged in the requested order.
a: S, P, R, Q, T
(S: 22 nM, P: 38 nM, R: 69 nM, Q: 144 nM, T: 263 nM)

(P) NC(=O)[C@H](Cc1ccccc1)NC(=O)[C@H]1CCCN(c2nc(N3CCOCC3)nc(-n3c(C(F)F)nc4ccccc43)n2)C1
(Q) NC(=O)[C@H](CO)NC(=O)C1CCN(c2nc(N3CCOCC3)nc(-n3c(C(F)F)nc4ccccc43)n2)CC1
(R) O=C(O)[C@@H]1CCCN(c2nc(N3CCOCC3)nc(-n3c(C(F)F)nc4ccccc43)n2)C1
q: Please list the entries, largest IC50 first. Present the labels in the sequence the task asks for.
a: R, P, Q
(R: 163 nM, P: 57 nM, Q: 29 nM)
